The reported numbers originate from patent US20260184708A1.

# target-under-test: TRPC5 (Homo sapiens, UniProt Q9UL62)
# Construct: expressed in transfected cells; host or cells: HEK 293
# Sequence (Q9UL62 1-973): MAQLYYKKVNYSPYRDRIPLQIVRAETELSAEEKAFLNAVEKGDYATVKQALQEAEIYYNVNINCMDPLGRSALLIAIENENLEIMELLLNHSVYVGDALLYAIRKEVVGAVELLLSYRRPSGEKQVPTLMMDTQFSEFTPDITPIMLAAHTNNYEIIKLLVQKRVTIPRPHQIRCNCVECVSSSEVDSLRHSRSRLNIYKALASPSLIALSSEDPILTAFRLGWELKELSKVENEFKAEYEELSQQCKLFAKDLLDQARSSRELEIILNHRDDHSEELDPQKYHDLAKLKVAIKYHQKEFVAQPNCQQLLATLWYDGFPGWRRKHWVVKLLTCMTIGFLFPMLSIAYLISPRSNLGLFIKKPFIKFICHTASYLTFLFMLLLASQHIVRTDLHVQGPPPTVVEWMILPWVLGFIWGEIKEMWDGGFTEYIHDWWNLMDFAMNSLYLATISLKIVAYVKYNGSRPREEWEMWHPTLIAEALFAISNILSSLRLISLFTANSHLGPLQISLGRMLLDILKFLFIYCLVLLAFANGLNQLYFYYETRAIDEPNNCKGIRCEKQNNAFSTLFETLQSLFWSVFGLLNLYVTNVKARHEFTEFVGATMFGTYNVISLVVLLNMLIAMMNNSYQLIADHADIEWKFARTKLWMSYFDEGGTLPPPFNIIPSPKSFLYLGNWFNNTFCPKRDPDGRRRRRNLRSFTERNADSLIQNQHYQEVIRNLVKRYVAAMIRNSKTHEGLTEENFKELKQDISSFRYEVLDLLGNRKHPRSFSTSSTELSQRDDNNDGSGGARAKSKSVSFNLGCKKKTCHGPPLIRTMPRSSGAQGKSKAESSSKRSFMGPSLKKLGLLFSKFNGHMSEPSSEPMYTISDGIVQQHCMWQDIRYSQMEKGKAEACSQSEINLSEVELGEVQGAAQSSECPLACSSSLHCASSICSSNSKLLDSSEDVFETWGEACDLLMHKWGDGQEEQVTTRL
# test-details: TRPC5 automated patch clamp assay (Qpatch), current block after rosiglitazone stimulation
# Type: cell-based
# reported-conditions: Table 5; HEK293 cells overexpressing TRPC5; rosiglitazone stimulation; 80 mV; read-out: TRPC5_QP_ XC50_80
readout-type: IC50

compound	target-under-test	readout-type	observed-result
CCc1cn[nH]c(=O)c1N1CCN(Cc2ccc(F)cc2C)CC1	TRPC5 (Homo sapiens, UniProt Q9UL62)	IC50	1 to 5 µM
Cc1cc(F)ccc1CN1CCN(c2c(Br)n[nH]c(=O)c2Cl)CC1=O	TRPC5 (Homo sapiens, UniProt Q9UL62)	IC50	10 to 500 µM
Cc1cc(F)ccc1CN1CCN(c2c(C)n[nH]c(=O)c2Cl)CC1=O	TRPC5 (Homo sapiens, UniProt Q9UL62)	IC50	10 to 500 µM
CC[C@@H](c1ccccc1)N1CCN(c2cn[nH]c(=O)c2Cl)CC1	TRPC5 (Homo sapiens, UniProt Q9UL62)	IC50	1 to 5 µM
Cc1ccccc1Cn1cnc2c1CCN(c1cn[nH]c(=O)c1Cl)C2 [drawing 830]	TRPC5 (Homo sapiens, UniProt Q9UL62)	IC50	1e-05 to 1 µM
COc1ncccc1CN1CCN(c2cn[nH]c(=O)c2Cl)CC1=O	TRPC5 (Homo sapiens, UniProt Q9UL62)	IC50	5 to 10 µM
Cc1cc(F)ccc1CN1CCN(c2c(Cl)c(-c3ccccc3)n[nH]c2=O)CC1	TRPC5 (Homo sapiens, UniProt Q9UL62)	IC50	10 to 500 µM
Cc1cc(F)ccc1CN1CCN(c2cc(=O)[nH]nc2-c2ccccc2)CC1	TRPC5 (Homo sapiens, UniProt Q9UL62)	IC50	1 to 5 µM
Cc1cc(F)ccc1CN1CCN(c2cc(-c3ccccc3)n[nH]c2=O)CC1	TRPC5 (Homo sapiens, UniProt Q9UL62)	IC50	1 to 5 µM
O=C1CN(c2cn[nH]c(=O)c2Cl)CCN1Cc1cccnc1Cl	TRPC5 (Homo sapiens, UniProt Q9UL62)	IC50	10 to 500 µM
